test system: PC-3; experiment: Cytotoxicity against human PC3 cells after 24 hrs by MTT assay; type: functional, cell-based; conditions: PC-3, 24 h
Counter-ions that a name gives are not always drawn.
readout_kind: IC50

* C=C1CC[C@H](C)[C@@](C)(CCC2=CCOC2=O)C/C=C\C=C/1C(=O)O | > 40 µM
* COc1cccc2c1C(=O)c1c(O)c3c(c(O)c1C2=O)C[C@@](O)(C(=O)CO)C[C@@H]3O[C@H]1C[C@H](N)[C@H](O)[C@H](C)O1 [DOXORUBICIN HYDROCHLORIDE] | 0.8 µM
* C=C1C(=O)O[C@H]2C[C@]3(C)CC[C@H](O)C(C)=C3C[C@@H]12 | > 40 µM
* C[C@H]1CC[C@@]2(C)C(C(=O)O)=CCC[C@H]2[C@]1(C)CCC1=CCOC1=O | > 40 µM
* C=C1CC[C@H](C)[C@@](C)(CCC2=CC(OC)OC2=O)C/C=C\C=C/1C(=O)O (stereo partly drawn) | > 40 µM
* CC1(C)[C@@H]2[C@@H]3[C@H](CC[C@@]3(C)O)[C@@](C)(O)CC[C@@H]21 | > 40 µM
* C=C1C(=O)[C@@]23C[C@@H]1CC[C@@H]2[C@@]1(C)CCCC(C)(C)[C@@H]1COC3=O | 11.5 µM
* C=C(C)[C@H]1C[C@H]2C(=C)CCC[C@]2(C)C[C@@H]1O | > 40 µM
